# tested_on: CDK4/CyclinD3 (Homo sapiens)
# Construct: purchased Wuxi Biortus Biosciences Co. Ltd
# Sequence (P11802 whole entry, species assumed): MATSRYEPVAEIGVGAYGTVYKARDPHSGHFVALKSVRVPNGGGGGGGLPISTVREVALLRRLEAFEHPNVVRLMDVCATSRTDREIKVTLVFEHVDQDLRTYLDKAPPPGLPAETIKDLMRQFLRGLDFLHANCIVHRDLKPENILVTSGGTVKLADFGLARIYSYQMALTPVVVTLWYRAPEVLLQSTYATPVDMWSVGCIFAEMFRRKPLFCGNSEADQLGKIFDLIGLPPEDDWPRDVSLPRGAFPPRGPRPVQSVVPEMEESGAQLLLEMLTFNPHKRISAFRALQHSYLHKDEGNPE
# Sequence (P30281 whole entry partner, species assumed): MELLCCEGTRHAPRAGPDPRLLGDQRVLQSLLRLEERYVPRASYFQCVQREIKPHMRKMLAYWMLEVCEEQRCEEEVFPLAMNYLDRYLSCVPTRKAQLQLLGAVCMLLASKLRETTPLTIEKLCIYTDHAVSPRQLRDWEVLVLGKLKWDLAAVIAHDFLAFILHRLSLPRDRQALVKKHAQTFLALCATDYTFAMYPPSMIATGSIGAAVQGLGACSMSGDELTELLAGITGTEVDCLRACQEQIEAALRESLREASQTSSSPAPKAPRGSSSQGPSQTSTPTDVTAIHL
# procedure_details: In-vitro kinase inhibitory activity, CDK4/CyclinD3 (Caliper EZ Reader II mobility shift)
# Assay type: biochemical
# test_conditions: CDK4/CyclinD3 20 nM, ATP 2 mM, Peptide 1 μM, 27° C., 180 min; read-out: IC50 (half maximal inhibitory concentration, nM) CDK4
Structures can show the parent of a compound that is named as a salt.
result_type: IC50 (nM)
Number in nM, nothing else.

INSERT INTO measurements (compound, quantitative_result) VALUES
  ('CC(=O)c1c(C)c2cnc(Nc3ccc(N4CCN(CCN5CCC(CC6CCN(c7ccc8c(c7)CN(C7CCC(=O)NC7=O)C8=O)CC6)CC5)CC4)cn3)nc2n(C2CCCC2)c1=O (stereo not shown) [Compound 11, dihydrochloride]', 24.6),
  ('CC(=O)c1c(C)c2cnc(Nc3ccc(N4CCN(CCN5CCC(CN6CCN(c7ccc8c(c7Cl)CN(C7CCC(=O)NC7=O)C8=O)CC6)CC5)CC4)cn3)nc2n(C2CCCC2)c1=O (stereo not shown) [Compound 36, trihydrochloride]', 12.7),
  ('Cc1nc2c(F)cc(-c3nc(Nc4ccc(CN5CCN(CCN6CCN(c7ccc8c(c7)CN(C7CCC(=O)NC7=O)C8=O)CC6)CC5)cn4)ncc3F)cc2n1C(C)C (stereo not shown) [Compound 12, trihydrochloride]', 13),
  ('CC(=O)c1c(C)c2cnc(Nc3ccc(N4CCC(CCN5CCC(CC6CCN(c7ccc8c(c7)CN(C7CCC(=O)NC7=O)C8=O)CC6)CC5)CC4)cn3)nc2n(C2CCCC2)c1=O (stereo not shown) [Compound 42, hydrochloride]', 33.3),
  ('CC(=O)c1c(C)c2cnc(Nc3ccc(N4CCN(CCN5CCC(CC6CCN(c7ccc8c(c7Cl)CN([C@H]7CCC(=O)NC7=O)C8=O)CC6)CC5)CC4)cn3)nc2n(C2CCCC2)c1=O [Compound 40, dihydrochloride]', 55),
  ('CC(=O)c1c(C)c2cnc(Nc3ccc(N4CCN(CCN5CCC(CN6CCN(c7c(F)cc8c(c7F)CN(C7CCC(=O)NC7=O)C8=O)CC6)CC5)CC4)cn3)nc2n(C2CCCC2)c1=O (stereo not shown) [Compound 34, trihydrochloride]', 17.6),
  ('CN(C)C(=O)c1cc2cnc(Nc3ccc(N4CCN(CCN5CCC(CN6CCN(c7ccc8c(c7)CN(C7CCC(=O)NC7=O)C8=O)CC6)CC5)CC4)cn3)nc2n1C1CCCC1 (stereo not shown) [Compound 26, trihydrochloride]', 38.4),
  ('CC(=O)c1c(C)c2cnc(Nc3ccc(N4CCN(CCN5CCN(c6c(F)cc7c(c6F)CN(C6CCC(=O)NC6=O)C7=O)CC5)CC4)cn3)nc2n(C2CCCC2)c1=O.Cl.Cl (stereo not shown) [Compound 23, dihydrochloride]', 48.8);

What value of measured IC50 is listed for COc1c(N2CCN(CCN3CCN(c4ccc(Nc5ncc6c(C)c(C(C)=O)c(=O)n(C7CCCC7)c6n5)nc4)CC3)CC2)ccc2c1CN(C1CCC(=O)NC1=O)C2=O (stereo not shown) [Compound 18] ?
99.5

What value of measured IC50 is listed for CC(=O)c1c(C)c2cnc(Nc3ccc(N4CCN(CCN5CCN(c6c(F)cc7c(c6F)CN(C6CCC(=O)NC6=O)C7=O)CC5)CC4)cn3)nc2n(C2CCCC2)c1=O (stereo not shown) [Compound 22] ?
27.4

# credit: patent US11485735B2
